Assay: SEC-HPLC % monomer
Type: physicochemical
Settings: optimized antibodies
Procedure: A TSKgel SuperSW mAb HTP column (22855) was used for fast SEC analysis of mammalian produced mAbs at 0.4 mL/min with a cycle time of 6 min/run. 200 mM Sodium Phosphate and 250 mM Sodium Chloride was used as the mobile phase.
Value Type: SEC-HPLC, % monomer
Hi, when you answer, please include the unit after the number. Thanks!

# SEC-HPLC, % monomer (molecule: ADI-71701: anti-IL18-BP antibody, sequences in FIG. 2E; 66650 lineage (antibody, V domains shown) VH: QVQLVQSGAEVKKPGASVKVSCKASGYTFNSYAMHWVRQAPGQRLEWMGWIHAGTGNTKYSQKFQGRVTITRDTSASTAYMELSSLRSEDTAVYYCARGLGEVGPTGTSWFDPWGQGTLVTVSS VL: DIQMTQSPPTLSASVGDRVTITCRASQSISSWLAWYQQKPGKAPKLLIYEASSLESGVPSRFSGSGSGTEFTLTISSLQPDDFATYYCQQYRVFPFTFGGGTKVEIK ) is 98.6%

Taken from patent US20240425607A1.
